Answer each item with its documented logD at 1 h.
Assay: n-octanol/phosphate buffer partition coefficient, log D of the compound at pH 7.4 measured after 1 hr by UV-LC/MS based shake flask method
Format: physicochemical
Field format: numeric only.

Qu. Return reported logD at 1 h; argument: C[C@@H]1CN2c3c(cc4c(-n5ncnc5NC[C@@H](C)O)noc4c3F)CC3(C(=O)NC(=O)NC3=O)[C@H]2[C@H](C)O1
Ans. 1.9

Qu. Return reported logD at 1 h; argument: C[C@@H]1CN2c3c(cc4c(-n5ncnc5N)noc4c3F)CC3(C(=O)NC(=O)NC3=O)[C@H]2[C@H](C)O1
Ans. 1.9

Qu. Return reported logD at 1 h; argument: C[C@@H]1CN2c3c(cc4c(-n5ncnc5NCCO)noc4c3F)CC3(C(=O)NC(=O)NC3=O)[C@H]2[C@H](C)O1
Ans. 1.6

Qu. Return reported logD at 1 h; argument: COCCNc1ncnn1-c1noc2c(F)c3c(cc12)CC1(C(=O)NC(=O)NC1=O)[C@H]1[C@H](C)O[C@H](C)CN31
Ans. 2.2

Qu. Return reported logD at 1 h; argument: C[C@H](O)CNc1ncnn1-c1noc2c(F)c3c(cc12)CC1(C(=O)NC(=O)NC1=O)[C@H]1[C@H](C)O[C@H](C)CN31
Ans. 1.9

Qu. Return reported logD at 1 h; argument: CNc1ncnn1-c1noc2c(F)c3c(cc12)CC1(C(=O)NC(=O)NC1=O)[C@H]1[C@H](C)O[C@H](C)CN31
Ans. 2.1

Qu. Return reported logD at 1 h; argument: C[C@@H]1CN2c3c(cc4c(-n5ncnc5NCCN5CCOCC5)noc4c3F)CC3(C(=O)NC(=O)NC3=O)[C@H]2[C@H](C)O1
Ans. 2.1

* * *

Answer each item with its documented logD at 1 h.
Experiment: n-octanol/phosphate buffer partition coefficient, log D of the compound at pH 7.4 measured after 1 hr by UV-LC/MS based shake flask method
Type: physicochemical
Field format: numeric only.

Qu. Return reported logD at 1 h; argument: C[C@@H]1CN2c3c(cc4c(-n5nccn5)noc4c3F)CC3(C(=O)NC(=O)NC3=O)[C@H]2[C@H](C)O1
Ans. 1.95

Qu. Return reported logD at 1 h; argument: C[C@@H]1CN2c3c(cc4c(-n5ncnc5N5CCOCC5)noc4c3F)CC3(C(=O)NC(=O)NC3=O)[C@H]2[C@H](C)O1
Ans. 1.6

Qu. Return reported logD at 1 h; argument: C[C@@H]1CN2c3c(cc4c(-n5ncnc5[C@H](C)O)noc4c3F)CC3(C(=O)NC(=O)NC3=O)[C@H]2[C@H](C)O1
Ans. 1.3

Qu. Return reported logD at 1 h; argument: C[C@@H]1CN2c3c(cc4c(-n5ccnc5)noc4c3F)CC3(C(=O)NC(=O)NC3=O)[C@H]2[C@H](C)O1 (racemic)
Ans. 2

Qu. Return reported logD at 1 h; argument: C[C@@H]1CN2c3c(cc4c(-n5ncnc5CO)noc4c3F)CC3(C(=O)NC(=O)NC3=O)[C@H]2[C@H](C)O1
Ans. 1.4

Qu. Return reported logD at 1 h; argument: C[C@@H]1CN2c3c(cc4c(N5C(=O)OC[C@@H]5C)noc4c3F)CC3(C(=O)NC(=O)NC3=O)[C@H]2[C@H](C)O1 [ZOLIFLODACIN]
Ans. 1.7

Qu. Return reported logD at 1 h; argument: CCNc1ncnn1-c1noc2c(F)c3c(cc12)CC1(C(=O)NC(=O)NC1=O)[C@H]1[C@H](C)O[C@H](C)CN31
Ans. 2.2

The measured values listed here are drawn from ChEMBL document CHEMBL4725408.
